Each entry below carries its reported IC50.
# Tested on: MDA-MB-468
# assay: Cytotoxicity against human MDA-MB-468 cells assessed as growth inhibition after 24 to 72 hrs by MTT assay
# Assay type: functional, cell-based

See these solved cases before continuing.
[[record]]
smi = "COC(=O)c1cc2c3ccccc3[nH]c2c2cn(-c3ccc(C(F)(F)F)cc3)c[n+]12.[Cl-]"
study_target = "MDA-MB-468"
result = "11.1 µM"

[[record]]
smi = "COC(=O)c1cc2c3ccccc3[nH]c2c2cn(-c3ccc(C)cc3Cl)c[n+]12"
study_target = "MDA-MB-468"
result = "> 30 µM"

[[record]]
smi = "COC(=O)c1cc2c3ccccc3[nH]c2c2cn(CCc3ccccc3)c[n+]12"
study_target = "MDA-MB-468"
result = "> 30 µM"


// next entry
Query the reported IC50 for MDA-MB-468; item: COC(=O)c1cc2c3ccccc3[nH]c2c2cn(-c3ccc(F)cc3Br)c[n+]12 9.51 µM

====

Each entry below carries its reported IC50.
# System: MDA-MB-468
# assay: Cytotoxicity against human MDA-MB-468 cells assessed as growth inhibition after 24 to 72 hrs by MTT assay
# Type: functional, cell-based
Give your result in µM as a bare value.

See these solved cases before continuing.
[[record]]
smi = "COC(=O)c1cc2c3ccccc3[nH]c2c2cn(-c3cccc(Br)c3)c[n+]12"
readout_number = 15.1

[[record]]
smi = "COC(=O)c1cc2c3ccccc3[nH]c2c2cn(-c3ccccc3)c[n+]12"
readout_number = 5.82

[[record]]
smi = "COC(=O)c1cc2c3ccccc3[nH]c2c2cn(-c3ccc(F)cc3Cl)c[n+]12.[Cl-]"
readout_number = 5.94

[[record]]
smi = "COC(=O)c1cc2c3ccccc3[nH]c2c2cn(-c3ccccc3I)c[n+]12"
readout_number = 8.02

[[record]]
smi = "COC(=O)c1cc2c3ccccc3[nH]c2c2cn(-c3ccc(Cl)cc3C)c[n+]12"
readout_number = 20.2

[[record]]
smi = "COC(=O)c1cc2c3ccccc3[nH]c2c2cn(-c3ccccc3Br)c[n+]12"
readout_number = 11


What does the record list as IC50 for COC(=O)c1cc2c3ccccc3[nH]c2c2cn(-c3ccc(C)cc3Br)c[n+]12.[Cl-] ? 5.78

====

# Test system: MDA-MB-468
# assay: Cytotoxicity against human MDA-MB-468 cells assessed as growth inhibition after 24 to 72 hrs by MTT assay
# Format: functional, cell-based
pIC50: −log10 of the molar value.
endpoint.label: pIC50

See these solved cases before continuing.
[[record]]
smi = "COC(=O)c1cc2c3ccccc3[nH]c2c2cn(-c3ccc(Cl)cc3)c[n+]12"
result = 4.99

[[record]]
smi = "COC(=O)c1cc2c3ccccc3[nH]c2c2cn(C34CC5CC(CC(C5)C3)C4)c[n+]12"
result = "< 4.52"

[[record]]
smi = "COC(=O)c1cc2c3ccccc3n(Cc3cc(OC)c(OC)c(OC)c3)c2c2cn(-c3ccc(Cl)cc3)c[n+]12"
result = "< 4.52"

[[record]]
smi = "CCN(CC)CCn1cc2c3[nH]c4ccccc4c3cc(C(=O)OC)[n+]2c1"
result = "< 4.52"


Query the reported pIC50 for MDA-MB-468; item: COC(=O)c1cc2c3ccccc3[nH]c2c2cn(Cc3ccccc3)c[n+]12 < 5.03
